Data provenance is ChEMBL document CHEMBL1150245.

method: Cytotoxicity against human HPLF cells
Format: cell-based
metricName: CC50 (µM)

C=C(CN(C)C)C(=O)c1ccc(Cl)cc1
9.2
CN(C)CC(CSCCO)C(=O)c1ccc([N+](=O)[O-])cc1 (configuration not stated)
400
CN(C)CC(CO)C(=O)c1ccc([N+](=O)[O-])cc1 (configuration not stated)
176
C=C(CN(C)C)C(=O)c1ccc(C)cc1
8.1
C=C(CN(C)C)C(=O)c1ccccc1
52
COc1ccc(C(=O)C(CO)CN(C)C)cc1 (configuration not stated)
4.9
C=C(CN(C)C)C(=O)c1ccc(OC)cc1
9.2
CN(C)CC(CO)C(=O)c1ccc(Cl)cc1 (configuration not stated)
12
C=C(CN(C)C)C(=O)c1ccc([N+](=O)[O-])cc1
26
Cc1ccc(C(=O)C(CO)CN(C)C)cc1 (configuration not stated)
9.8
CN(C)CC(CO)C(=O)c1ccccc1 (configuration not stated)
5.2
